molecular target: T1, Peptide B (human PAR-2), C-terminal biotinylated (Human, not fully specified); assay: SPR, peptide immobilized
T1 construct: also called Peptide B C-Term
T1 peptide: SLIGKVDGTSHVTGGGGGS-biotin
Where no end group is shown, it is not given here.
quantity.kind: Kd (nM)
Give the number; nM is assumed, so skip it.

In plain terms, H2M588N (antibody, V domains shown, chimeric: human variable, mouse constant domains) VH: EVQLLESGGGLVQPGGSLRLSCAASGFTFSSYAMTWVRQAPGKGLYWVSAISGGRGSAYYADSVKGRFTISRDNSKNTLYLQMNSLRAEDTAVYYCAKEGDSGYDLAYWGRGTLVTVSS VL: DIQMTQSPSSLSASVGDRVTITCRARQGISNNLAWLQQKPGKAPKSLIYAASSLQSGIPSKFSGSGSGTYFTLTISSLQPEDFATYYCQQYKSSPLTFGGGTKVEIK has a documented Kd of 1.49

In plain terms, H2M591N (antibody, V domains shown, chimeric: human variable, mouse constant domains) VH: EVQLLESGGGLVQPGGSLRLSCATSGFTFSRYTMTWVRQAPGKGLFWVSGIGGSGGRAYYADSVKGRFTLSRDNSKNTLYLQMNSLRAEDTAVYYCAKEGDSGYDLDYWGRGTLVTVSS VL: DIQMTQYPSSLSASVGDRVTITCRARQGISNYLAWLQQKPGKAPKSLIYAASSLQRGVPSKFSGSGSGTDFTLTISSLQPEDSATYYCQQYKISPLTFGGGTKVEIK has a documented Kd of 1.82

In plain terms, H4H579P (antibody, human IgG4, V domains shown, also called H1H579P variable regions) VH: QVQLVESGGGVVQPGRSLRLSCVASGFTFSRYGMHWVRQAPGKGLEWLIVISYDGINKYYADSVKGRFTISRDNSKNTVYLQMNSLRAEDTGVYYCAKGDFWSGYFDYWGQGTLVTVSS VL: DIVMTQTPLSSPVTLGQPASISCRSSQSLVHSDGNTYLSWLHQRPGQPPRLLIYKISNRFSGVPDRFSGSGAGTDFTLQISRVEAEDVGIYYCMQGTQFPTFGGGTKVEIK has a documented Kd of 0.453

In plain terms, H4H584P (antibody, human IgG4, V domains shown, also called H1H584P variable regions) VH: QVQLVESGGGVVQPGRSLRLSCVASGFTFSRYGMHWVRQAPGKGLEWVVVISYDGINKYYADSVKGRFTISRDNSKNTVYLQMNSLRAEDTAVYYCAKGDFWSGYFDYWGQGTLVTVSS VL: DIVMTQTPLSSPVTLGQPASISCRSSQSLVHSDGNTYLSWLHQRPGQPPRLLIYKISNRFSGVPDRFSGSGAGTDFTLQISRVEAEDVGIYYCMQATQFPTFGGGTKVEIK has a documented Kd of 1.66

All figures here come from patent US20110059095A1.
